# MFI values compiled below
Target: T1, cynomolgus BLyS (full length, arginine to histidine at position 132) on CHO-K1 cells (cynomolgus, UniProt Q9Y275 1-285 (human entry))
T1 construct: also called cyno BLyS; CHO-K1 cynoBLyS
T1 chain: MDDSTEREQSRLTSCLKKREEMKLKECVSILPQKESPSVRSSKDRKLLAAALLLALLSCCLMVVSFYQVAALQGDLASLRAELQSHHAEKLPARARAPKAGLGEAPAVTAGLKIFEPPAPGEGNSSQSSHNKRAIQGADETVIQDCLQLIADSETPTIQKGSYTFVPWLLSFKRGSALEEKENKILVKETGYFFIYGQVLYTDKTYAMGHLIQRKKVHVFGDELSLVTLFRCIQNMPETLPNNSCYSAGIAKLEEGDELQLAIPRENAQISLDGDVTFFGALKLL
Assay: flow cytometry, CHO-K1 cynoBLyS cells, antibody 0.00427 nM
Please state the figure in MFI; there is no need to write the unit.

1. 35E6F7C3 (antibody, V domains shown, Mouse hybridoma monoclonal antibody purified on Protein G) VH: EVQLQQSGAELVKPGASVKLSCTAAGFNIQDTYIHWVKQRPEQGLEWIGRIDPANANTVYDPKFQGKATITADTSSNTAYLQVSSLTSEDTAVYYCASPVITAGFAYWGQGTLVTVSA VL: QIVLTQSPAIMSASPGEKVTMTCGASSSVNYVHWYQQKSGTSPKRWIYDTSKLASGVPARFSGSGSGTSYSLTISSMEAEDAATYYCQQWTRSPLTFGAGTKVELK : 32.6

Now for another entry.
Memo: 8E7D9C7F5 (antibody, V domains shown, Mouse hybridoma monoclonal antibody purified on Protein G) VH: QVQLQQSGVELARPGASVKLSCKASGYTFTSYGISWVKQRTGQALEWIGEIYPRSGNTYYNEKFKGKATLTADKSSSTAYMELRSLTSEDSAVYFCARSGPITTLVATDYGMDYWGQGTSVTVSS VL: DIVLTQSPASLAVSLGQRATISCRASKSVSTSSYSYMHWYQQKPGQPPKLLIKFASNLESGVPARFSGSGSGTDFTLNIHPVEEEDAATYYCQHSREFPYTFGGGTKLEIK , reported MFI: 74.4
